Just for reference, PubChem BioAssay AID602342 is where these values come from.

# TEST DESCRIPTION: compounds raising miR-122 luciferase sensor output – cell-based, single point, plate reader, miR-122 inhibitor project, primary screen (AID 602342);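 further: higher luciferase means less miR-122 activity so hits act as miR-122 inhibitors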
# CONDITION DETAILS: Huh7 miR-122 Renilla luciferase sensor, 48 h, neutral wells = 0; at 16.7 µM unless noted
The whole screen tested about 340,000 compounds, of which about 1,000 (0.29%) were called active.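 How the source made its calls: active means mean replicate activation score at least 90 and every replicate individually at or above 90; inconclusive means only one of the two criteria met; inactive means neither criterion met.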 Many of the other results were omitted from the sample, so actives are more common in it than they were.
// classify into T (active), F (inactive)

Data request: How was COc1ccc(/C=C/C(=O)c2c(O)cc(OC)cc2OC)cc1 classified in this test?
Data returned: F

Data request: Do the same for COc1ccc(CNS(=O)(=O)c2ccc(-c3cnc(C4CC4)o3)cc2)cc1 please
Data returned: F

Data request: Do the same for CC(C)c1cc(C(=O)O)on1 please
Data returned: F

Data request: Do the same for O=C(/C=C(O)/C=C/c1ccc(O)cc1)/C=C/c1ccc(O)cc1 please
Data returned: T

Data request: Do the same for Cc1cccc(NS(=O)(=O)c2ccc(-c3cnc(C4CC4)o3)cc2)c1 please
Data returned: T

Data request: Do the same for CC1=C(C)CC(C(=O)NNC(=O)c2ccccc2O)C(C(=O)O)C1 (stereo not given) please
Data returned: T

Data request: Do the same for O=C(NNC(=O)c1cc(S(=O)(=O)N2CCCCC2)ccc1Cl)c1ccccc1O please
Data returned: F

Data request: Do the same for O=C(NC1CCCC1)[C@@H]1[C@@H](CO)[C@@H]2Cn3c(ccc(-c4ccc(F)cc4)c3=O)[C@H]1N2Cc1cocn1 please
Data returned: F

Data request: Do the same for O=C(C1CCC1)N1C[C@H]2[C@@H](c3ccccc31)[C@@H](CO)N2C(=O)c1ccccc1F please
Data returned: F

Data request: Do the same for CC(=O)N(C)C[C@@H]1Oc2cc(-c3cccnc3)ccc2S(=O)(=O)N([C@@H](C)CO)C[C@H]1C please
Data returned: F

====

# TEST DESCRIPTION: compounds raising miR-122 luciferase sensor output – cell-based, single point, plate reader, miR-122 inhibitor project, primary screen (AID 602342);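 further: higher luciferase means less miR-122 activity so hits act as miR-122 inhibitors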
# CONDITION DETAILS: Huh7 miR-122 Renilla luciferase sensor, 48 h, neutral wells = 0; at 16.7 µM unless noted
Hit rate of the full screen: of about 340,000 compounds, about 1,000 (0.29%) were called active.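 The calls were made as follows: active = mean replicate activation score at least 90 and every replicate individually at or above 90; inconclusive = only one of the two criteria met; inactive = neither criterion met.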 Shown is part of a subset that was picked to be rich in actives.
// classify into active, inactive

Data request: How was Cc1noc(C)c1NC(=O)Nc1ccc2c(c1)CC(=O)N([C@@H](C)CO)C[C@@H](C)[C@H](CN(C)Cc1ccc(Oc3ccccc3)cc1)O2 classified in this test?
Data returned: inactive

Data request: Do the same for COc1ccccc1C(=O)Nc1ccccc1C(=O)Nc1ccccc1 please
Data returned: inactive

Data request: Do the same for Cc1c(-c2ccccc2)cn2c1-c1ccc(C)n1CC2 please
Data returned: active

Data request: Do the same for O=C(N[C@@H]1CC[C@H](CCn2cc(C3CC3)nn2)O[C@H]1CO)c1cccnc1 please
Data returned: inactive

Data request: Do the same for O=S(=O)(NCCc1ccccn1)c1cc(Cl)cc(Cl)c1O please
Data returned: inactive

Data request: Do the same for CC(C)c1cc(C(=O)N/N=C/C(Br)=C/c2ccccc2)n[nH]1 please
Data returned: active

Data request: Do the same for COc1ccc(OC)c(/C=N/NC(=O)c2ccc[n+](CC(=O)c3ccccc3)c2)c1 please
Data returned: inactive

Data request: Do the same for C/C=C/c1ccc([C@H]2[C@@H](CO)N(S(C)(=O)=O)[C@@H]2CN(C)C(=O)CC)cc1 please
Data returned: inactive

Data request: Do the same for O=S(=O)(/C=C/c1ccccc1)NCCc1ccccn1 please
Data returned: inactive

Data request: Do the same for COc1ccc(S(=O)(=O)Nc2ccc3c(c2)C(=O)N([C@@H](C)CO)C[C@H](C)[C@@H](CN(C)C(=O)NC(C)C)OCCCC[C@H](C)O3)cc1 please
Data returned: inactive

Data request: Do the same for Cc1ccccc1-c1cnc2c(c1)C(=O)N([C@@H](C)CO)C[C@@H](C)[C@@H](CN(C)CC1CCOCC1)O2 please
Data returned: inactive

Data request: Do the same for Cc1ccc(S(=O)(=O)Nc2ccc3c(c2)C(=O)N([C@H](C)CO)C[C@H](C)[C@H](CN(C)S(=O)(=O)c2ccc(F)cc2)O3)cc1 please
Data returned: inactive

Data request: Do the same for Cc1noc(C)c1NC(=O)N(C)C[C@H]1OCCCC[C@H](C)Oc2ccc(NC(=O)Nc3ccccc3)cc2C(=O)N([C@H](C)CO)C[C@@H]1C please
Data returned: inactive

Data request: Do the same for Cc1cc(C(=O)N/N=C\C(Br)=C\c2ccccc2)c(C)o1 please
Data returned: inactive

Data request: Do the same for CN1C(=O)c2cc(NC(=O)c3ccc(F)c(F)c3)ccc2OC[C@H]2O[C@@H](CC(=O)N3CCCCC3)CC[C@H]21 please
Data returned: inactive

Data request: Do the same for COc1ccc(CN(C)C[C@H]2OCCCC[C@@H](C)Oc3ccc(NS(=O)(=O)c4ccccc4)cc3C(=O)N([C@@H](C)CO)C[C@@H]2C)cc1 please
Data returned: inactive

Data request: Do the same for C[C@@H]1CN([C@@H](C)CO)C(=O)c2cc(C#CC(C)(C)O)cnc2O[C@H]1CN(C)Cc1cccc(F)c1 please
Data returned: inactive

Data request: Do the same for NCC[C@@H]1CC[C@@H](NC(=O)C2CCCC2)[C@H](CO)O1 please
Data returned: inactive

Data request: Do the same for Cc1noc(C)c1NC(=O)N(C)C[C@H]1OCc2cn(nn2)CCCC(=O)N([C@@H](C)CO)C[C@H]1C please
Data returned: inactive

Data request: Do the same for O=C(NN=Cc1ccccc1)c1ccccc1 please
Data returned: inactive

Data request: Do the same for O=C(CN1CCOCC1)Nc1ccc(NC(=O)CN2CCOCC2)c(Cl)c1 please
Data returned: inactive

Data request: Do the same for COc1ccc(NS(=O)(=O)c2ccc(NC(=S)NC(=O)CC(C)C)cc2)cc1 please
Data returned: active

Data request: Do the same for C[C@@H]1CN([C@@H](C)CO)C(=O)c2cc(NC(=O)Cc3ccccc3)ccc2O[C@@H](C)CCCCO[C@H]1CN(C)C(=O)Cc1ccccc1 please
Data returned: inactive

Data request: Do the same for C[C@@H]1CCCCO[C@@H](CN(C)Cc2ccncc2)[C@H](C)CN([C@@H](C)CO)C(=O)c2cc(N(C)C)ccc2O1 please
Data returned: inactive

Data request: Do the same for C[C@H](CO)N1C[C@H](C)[C@H](CN(C)S(C)(=O)=O)Oc2ncc(C3=CCCCC3)cc2C1=O please
Data returned: inactive

Data request: Do the same for COc1ccc(OC)c(-n2cc3c(=O)n(C)c(=O)n(C)c3c2)c1 please
Data returned: active

Data request: Do the same for CCC(=O)N1[C@@H]2c3ccc(-c4cccnc4)c(=O)n3C[C@H]1[C@H](CO)[C@H]2C(=O)N1CCc2ccccc2C1 please
Data returned: inactive

Data request: Do the same for C=CCNC(=O)c1ccccc1NC(=O)c1ccc(Cl)c(S(=O)(=O)Nc2cccc(C)c2C)c1 please
Data returned: active

Data request: Do the same for Cc1ccccc1S(=O)(=O)N1C[C@H](O)COC[C@H]2O[C@H](CC(=O)N3CCCCC3)CC[C@@H]21 please
Data returned: inactive

Data request: Do the same for CCOC(=O)c1c(C)[nH]c(C)c1S(=O)(=O)NCCCc1ccco1 please
Data returned: active

====

# TEST DESCRIPTION: compounds raising miR-122 luciferase sensor output – cell-based, single point, plate reader, miR-122 inhibitor project, primary screen (AID 602342);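 further: higher luciferase means less miR-122 activity so hits act as miR-122 inhibitors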
# CONDITION DETAILS: Huh7 miR-122 Renilla luciferase sensor, 48 h, stronger effect = higher value, neutral wells = 0, positive control = 100; at 16.7 µM unless noted
About 1,000 (0.29%) of roughly 340,000 compounds were called active. Shown is part of a subset that was picked to be rich in actives.
So I've got a bunch of compounds here, and I need their activation (reporter increase) values.

Data request: Would you kindly share the measured activation (reporter increase) for COc1ccc(S(=O)(=O)N(C)C[C@H]2OCCCC[C@@H](C)Oc3ccc(NC(=O)CCC(F)(F)F)cc3C(=O)N([C@@H](C)CO)C[C@H]2C)cc1 ?
Data returned: 16.9% (inactive)

Data request: Do the same for COc1ccc(S(=O)(=O)Nc2cccc3c2O[C@H](CN(C)Cc2ccc4c(c2)OCO4)[C@H](C)CN([C@@H](C)CO)C3=O)cc1 please
Data returned: 2.28% (inactive)

Data request: Do the same for Cc1cc(-c2ccc(C)c(S(=O)(=O)NCCCN(Cc3ccccc3)C(C)C)c2)on1 please
Data returned: 46.4% [at 12.5 µM] (inactive)

Data request: Do the same for CN(C)C(=O)C[C@@H]1CC[C@H]2[C@@H](COC[C@H](O)CN2S(=O)(=O)c2ccccc2)O1 please
Data returned: 0.2% (inactive)

Data request: Do the same for CCOc1ccccc1CNS(=O)(=O)c1cc(-c2cc(C)no2)ccc1C please
Data returned: 54.4% [at 12.5 µM] (inactive)

Data request: Do the same for CC(=O)N1CC[C@@H]2[C@@H](CO)N(C)c3ccc(-c4ccc(C#N)cc4)cc3[C@@H]21 please
Data returned: -2.99% (inactive)

Data request: Do the same for COc1ccc(S(=O)(=O)Nc2ccc3c(c2)C(=O)N([C@@H](C)CO)C[C@@H](C)[C@H](CN(C)C(=O)CCC(F)(F)F)OCCCC[C@H](C)O3)cc1 please
Data returned: -1.47% (inactive)

Data request: Do the same for Cc1noc(C)c1S(=O)(=O)NCCc1ccc(S(N)(=O)=O)cc1 please
Data returned: -7.32% [at 12.5 µM] (inactive)
